- measured-target: human OX1R (Homo sapiens, UniProt O43613)
- Construct: expressed in transfected cells; host or cells: CHO (Chinese hamster ovary) cells, line CHOOX1R, co-expressing NFAT-luciferase
- Sequence (O43613 whole entry): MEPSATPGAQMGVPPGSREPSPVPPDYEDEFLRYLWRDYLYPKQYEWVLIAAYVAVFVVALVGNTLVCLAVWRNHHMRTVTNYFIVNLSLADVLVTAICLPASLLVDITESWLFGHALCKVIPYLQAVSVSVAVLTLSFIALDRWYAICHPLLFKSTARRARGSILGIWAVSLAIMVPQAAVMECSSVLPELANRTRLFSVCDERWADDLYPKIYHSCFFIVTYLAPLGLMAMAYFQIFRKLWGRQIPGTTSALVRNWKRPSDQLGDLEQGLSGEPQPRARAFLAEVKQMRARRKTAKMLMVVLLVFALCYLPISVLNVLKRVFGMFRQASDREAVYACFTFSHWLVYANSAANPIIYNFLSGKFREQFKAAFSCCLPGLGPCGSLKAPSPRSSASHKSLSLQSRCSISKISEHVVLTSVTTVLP
- assay-text: Agonist activity against OX1R: intracellular calcium (Fura-2AM, FDSS7000) in CHOOX1R cells
- Type: cell-based
- condition-info: 1.0 μM test compound; relative to orexin-A as full agonist (100%)
Below is a list of entries, each paired with its recorded Response (%) OX1R value.

Solved cases (6 shown):
>>> reported_measurement("COc1ccc(-c2cccc(C(=O)N(C)C)c2)cc1S(=O)(=O)Nc1cccc(NC(=O)Nc2ccccn2)c1 [Example 68]")
"6%"
>>> reported_measurement("COc1ccc(-c2cccc(C(=O)N(C)C)c2)cc1S(=O)(=O)Nc1cccc(Nc2ccc3c(c2)OCO3)c1 [Example 36]")
"<5%"
>>> reported_measurement("COc1ccc(-c2cccc(C(=O)N(C)C)c2)cc1S(=O)(=O)Nc1cccc(NC(=O)Nc2cccc([N+](=O)[O-])c2)c1 [Example 57]")
"<5%"
>>> reported_measurement("COc1ccc(-c2cccc(C(=O)N(C)C)c2)cc1S(=O)(=O)Nc1cccc(NC(=O)Nc2cccs2)c1 [Example 67]")
"8%"
>>> reported_measurement("COc1ccc(-c2cccc(C(=O)N(C)C)c2)cc1S(=O)(=O)Nc1cccc(NCc2ccccc2O)c1 [Example 26]")
"<5%"
>>> reported_measurement("COc1ccc(-c2cccc(C(=O)N(C)C)c2)cc1S(=O)(=O)Nc1cccc(NC(=O)/C=C/c2ccoc2)c1 [Example 14]")
"<5%"

Record lookup: for human OX1R (Homo sapiens, UniProt O43613), what Response (%) OX1R belongs to COc1ccc(-c2cccc(C(=O)N(C)C)c2)cc1S(=O)(=O)Nc1cccc(NC(=O)Nc2cccc(N)c2)c1 [Example 63] ?
9%

What about COc1ccc(-c2cccc(C(=O)N(C)C)c2)cc1S(=O)(=O)Nc1cccc(NC(=O)c2cccc(Br)c2)c1 [Example 3] ?
9%

----------
Overview of reported Response (%) OX2R across a group of compounds:
- measured-target: human OX2R (Homo sapiens, UniProt O43614)
- Construct: expressed in transfected cells; host or cells: CHO (Chinese hamster ovary) cells, line CHOOX2R, co-expressing NFAT-luciferase
- Sequence (O43614 whole entry): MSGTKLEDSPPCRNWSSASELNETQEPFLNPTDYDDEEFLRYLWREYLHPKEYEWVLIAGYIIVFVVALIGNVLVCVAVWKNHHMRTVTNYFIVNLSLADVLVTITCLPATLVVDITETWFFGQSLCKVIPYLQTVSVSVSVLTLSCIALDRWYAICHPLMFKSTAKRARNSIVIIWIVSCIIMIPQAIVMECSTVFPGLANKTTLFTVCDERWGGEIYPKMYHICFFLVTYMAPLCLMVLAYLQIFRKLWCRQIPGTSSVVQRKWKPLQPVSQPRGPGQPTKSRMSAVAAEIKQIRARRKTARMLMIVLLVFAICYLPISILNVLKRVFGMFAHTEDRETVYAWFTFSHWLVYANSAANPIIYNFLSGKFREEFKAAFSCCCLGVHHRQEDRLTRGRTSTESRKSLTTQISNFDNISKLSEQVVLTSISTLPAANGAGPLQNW
- assay-text: Agonist activity against OX2R: intracellular calcium (Fura-2AM, FDSS7000) in CHOOX2R cells
- Assay type: cell-based
- condition-info: 0.1 μM test compound; relative to orexin-A as full agonist (100%)

Field: example entries. Status: answers known.
>>> reported_measurement("COc1ccc(-c2cccc(C(=O)N(C)C)c2)cc1S(=O)(=O)Nc1cccc(NC(=O)Nc2ccccc2Br)c1 [Example 43]")
"102%"
>>> reported_measurement("COc1ccc(-c2cccc(C(=O)N(C)C)c2)cc1S(=O)(=O)Nc1cccc(NC(=O)c2cccc3ccccc23)c1 [Example 10]")
"14%"
>>> reported_measurement("COc1ccccc1CNc1cccc(NS(=O)(=O)c2cc(-c3cccc(C(=O)N(C)C)c3)ccc2OC)c1 [Example 21]")
"<5%"
>>> reported_measurement("COc1cccc(Nc2cccc(NS(=O)(=O)c3cc(-c4cccc(C(=O)N(C)C)c4)ccc3OC)c2)c1 [Example 32]")
"13%"
>>> reported_measurement("COc1ccc(-c2cccc(C(=O)N(C)C)c2)cc1S(=O)(=O)Nc1cccc(NC(=O)c2ccc3c(c2)OCO3)c1 [Example 5]")
"10%"
>>> reported_measurement("COc1ccc(-c2cccc(C(=O)N(C)C)c2)cc1S(=O)(=O)Nc1cccc(Nc2ccc(C(=O)N(C)C)cc2)c1 [Example 34]")
"<5%"
>>> reported_measurement("COc1ccc(-c2cccc(C(=O)N(C)C)c2)cc1S(=O)(=O)Nc1cccc(NC(=O)Nc2cccc([N+](=O)[O-])c2)c1 [Example 57]")
"91%"
>>> reported_measurement("COc1cccc(CNc2cccc(NS(=O)(=O)c3cc(-c4cccc(C(=O)N(C)C)c4)ccc3OC)c2)c1 [Example 23]")
"54%"

# Response (%) OX2R lookup, item COc1ccc(-c2cccc(C(=O)N(C)C)c2)cc1S(=O)(=O)Nc1cccc(NC(=O)OC(C)(C)C)c1 [Example 74]
15%

Record: COc1ccc(-c2cccc(C(=O)N(C)C)c2)cc1S(=O)(=O)Nc1cccc(NC(=O)Nc2cccc(N)c2)c1 [Example 63]
8%

Would you kindly repeat that for COc1ccc(-c2cccc(C(=O)N(C)C)c2)cc1S(=O)(=O)Nc1cccc(NCc2ccccc2Br)c1 [Example 28] ?
6%
